Hello, the source for this data is ChEMBL document CHEMBL1201862, in case you need it.

# GI50 per record follows
# Test system: K562
# method_notes: NCI tumour cell line growth inhibition, 48 h
The source made the active and inactive calls. Rule as the data show it: active = GI50 up to about 1.1 µM and inactive = higher.

Some compounds with recorded GI50:
compound	readout_value
CCOC(=O)CCCSCCCC(=O)CCCSCCCC(=O)OCC	> 100 µM (inactive)
Clc1ccc(-c2nn3c(COc4cccc(OCc5nnc6sc(-c7ccc(Cl)cc7)nn56)c4)nnc3s2)cc1	24.4 µM (inactive)
CN(C)c1ccc(-c2[nH]c(=O)c3ccccc3[n+]2C)cc1	58.6 µM (inactive)

Value of measured GI50 for the entry C=C1CCC(CC[C@@H]2CC[C@]3(OC2)O[C@@]2(O)CC[C@]3(C)OC2(C)C)C(C)(C)[C@H]1C/C=C1/C(=O)OC[C@@H]1O (some centres not stated) : 0.141 µM (active)

Value of measured GI50 for the entry `Clc1ccc(NCNC2Nc3ccccc3N2)cc1Cl` : 12.4 µM (inactive)

Value of measured GI50 for the entry O=C(O)c1c(CC(Cc2ccc3c(c2)CCCC3)C(=O)O)ccc2c1CCCC2 (configuration not stated) : > 100 µM (inactive)

Value of measured GI50 for the entry COC(=O)N1CC(=O)C(C(=O)NC23CC4CC(CC(C4)C2)C3)C1 (configuration not stated) : 55.2 µM (inactive)

Value of measured GI50 for the entry `O=C(O)C[n+]1cn(NC(=O)Cc2ccccc2)cn1` : > 10 µM (inactive)

Value of measured GI50 for the entry `O=C(Nc1ccc(S(=O)(=O)N[C@@H](C(=O)O)c2ccccc2)cc1)c1ccc(F)cc1` : > 100 µM (inactive)

Value of measured GI50 for the entry `O=[N+]([O-])c1cccc2nc3ccccc3c(NCCC[N+]3([O-])CCOCC3)c12` : 0.223 µM (active)

Value of measured GI50 for the entry `COc1ccc(N2C(=O)c3c(c4[nH]c5ccccc5c4c4ccc(C(C)(C)C)cc34)C2=O)cc1` : > 100 µM (inactive)
